# Test system: LNCaP cells
# Test Description: MTT cytotoxicity assay, LNCaP (p53 pos)
# Type: cell-based
# Experimental Conditions: Homo sapiens, LNCaP, 48 h
pIC50: −log10 of the molar value.
Each item that follows carries a reported pIC50.

>  <Molecule>
C#CCN1C(=O)[C@]2(c3ccccc31)N(C)C[C@H](c1cccc(Cl)c1)[C@]21NC(=S)N(c2ccc(OC)c(Cl)c2)C1=O

>  <pIC50>
< 4.00

$$$$
>  <Molecule>
C#CCOc1ccc(N2C(=O)[C@]3(NC2=S)[C@@H](c2ccc(Cl)cc2)CN(C)[C@@]32C(=O)Nc3ccccc32)cc1

>  <pIC50>
< 4.00

$$$$
>  <Molecule>
CCOc1ccc(N2C(=O)C3(NC2=S)C(c2ccc(Cl)cc2)CN(C)C32C(=O)Nc3ccc(Br)cc32)cc1 (stereo not shown)

>  <pIC50>
5.46

$$$$
>  <Molecule>
CN1CC(c2ccccc2)C2(NC(=S)N(c3ccccc3)C2=O)C12C(=O)Nc1ccccc12 (stereo not shown)

>  <pIC50>
< 4.00

$$$$

* * *

# Test system: LNCaP cells
# Test Description: MTT cytotoxicity assay, LNCaP (p53 pos)
# Type: cell-based
# Experimental Conditions: 48 h
pIC50: −log10 of the molar value.
Catalogue of molecules with associated pIC50
Measured Property: pIC50

>  <Molecule>
CN1C[C@H](c2cccc(Cl)c2)[C@]2(NC(=S)N(c3ccccc3)C2=O)[C@]12C(=O)Nc1ccc(Br)cc12 (racemic) [Compound 15]

>  <Recorded Value>
< 4.00

$$$$
>  <Molecule>
CCOc1ccc(N2C(=O)[C@]3(NC2=S)[C@@H](c2ccc(F)cc2)CN(C)[C@@]32C(=O)Nc3ccccc32)cc1 (racemic) [Compound 30]

>  <Recorded Value>
< 4.00

$$$$
>  <Molecule>
CN1C[C@H](c2ccncc2)[C@]2(NC(=S)N(c3ccccc3)C2=O)[C@]12C(=O)Nc1ccc(Br)cc12 (racemic) [Compound 20]

>  <Recorded Value>
< 4.00

$$$$
>  <Molecule>
COc1ccc(N2C(=O)[C@]3(NC2=S)[C@@H](c2cccc(Cl)c2)CN(C)[C@@]32C(=O)Nc3ccccc32)cc1Cl (racemic) [Compound 58]

>  <Recorded Value>
< 4.00

$$$$
>  <Molecule>
COc1ccc(N2C(=O)[C@]3(NC2=S)[C@@H](c2cccc(Cl)c2)CN(C)[C@@]32C(=O)Nc3ccc(Br)cc32)cc1 (racemic) [Compound 33]

>  <Recorded Value>
< 4.00

$$$$
>  <Molecule>
COc1ccc(N2C(=O)[C@]3(NC2=S)[C@@H](c2cccc(Cl)c2)CN(C)[C@@]32C(=O)Nc3ccc(Br)cc32)cc1Cl (racemic) [Compound 59]

>  <Recorded Value>
< 4.30

$$$$
>  <Molecule>
CC(c1ccccc1)N1C(=O)C2(NC1=S)C(c1ccc(Cl)cc1)CN(C)C21C(=O)Nc2ccc(Br)cc21 (mixture of isomers) [Compound 65]

>  <Recorded Value>
< 4.00

$$$$
>  <Molecule>
CN1CC(c2ccc(Cl)cc2)C2(NC(=S)N(c3ccc(O)cc3)C2=O)C12C(=O)Nc1ccc(Br)cc12 (stereo not shown) [Compound 51]

>  <Recorded Value>
< 4.00

$$$$
>  <Molecule>
CC(c1ccccc1)N1C(=O)C2(NC1=S)C(c1cccc(Cl)c1)CN(C)C21C(=O)Nc2ccc(Br)cc21 (mixture of isomers) [Compound 63]

>  <Recorded Value>
5.47

$$$$
>  <Molecule>
COc1ccc([C@H]2CN(C)[C@@]3(C(=O)Nc4ccccc43)[C@@]23NC(=S)N(c2ccc(F)c(Cl)c2)C3=O)cc1OC (racemic) [Compound 44]

>  <Recorded Value>
5.07

$$$$
>  <Molecule>
CN1C[C@H](c2ccccc2Cl)[C@]2(NC(=S)N(c3ccc(Cl)cc3)C2=O)[C@]12C(=O)Nc1ccc(Cl)cc12 (racemic) [Compound 36]

>  <Recorded Value>
< 4.00

$$$$
>  <Molecule>
CN1C[C@H](C2CCCCC2)[C@]2(NC(=S)N(c3ccccc3)C2=O)[C@]12C(=O)Nc1ccccc12 (racemic) [Compound 25]

>  <Recorded Value>
< 4.00

$$$$
>  <Molecule>
CN1C[C@H](c2ccccc2Cl)[C@]2(NC(=S)N(c3ccccc3)C2=O)[C@]12C(=O)Nc1ccccc12 (racemic) [Compound 9]

>  <Recorded Value>
< 4.00

$$$$

* * *

As shown below, each of these compounds has a reported IC50 value.
# Test system: PC3 cells
# Test Description: MTT cytotoxicity assay, PC3 (p53 neg)
# Type: cell-based
# Experimental Conditions: Homo sapiens, PC-3, 48 h

>  <Compound>
C#CCOc1ccc(N2C(=O)[C@]3(NC2=S)[C@@H](c2ccc(Cl)cc2)CN(C)[C@@]32C(=O)Nc3ccccc32)cc1 [Compound 35]

>  <IC50>
> 100 µM

$$$$
>  <Compound>
CN1CC(c2ccccc2)C2(NC(=S)N(c3ccccc3)C2=O)C12C(=O)Nc1ccccc12 (stereo not shown) [Compound 4]

>  <IC50>
> 100 µM

$$$$
>  <Compound>
C#CCN1C(=O)[C@]2(c3ccccc31)N(C)C[C@H](c1cccc(Cl)c1)[C@]21NC(=S)N(c2ccc(OC)c(Cl)c2)C1=O [Compound 69]

>  <IC50>
> 100 µM

$$$$
>  <Compound>
CCOc1ccc(N2C(=O)C3(NC2=S)C(c2ccc(Cl)cc2)CN(C)C32C(=O)Nc3ccc(Br)cc32)cc1 (stereo not shown) [Compound 29]

>  <IC50>
9.8 µM

$$$$

* * *

# Test system: PC3 cells
# Test Description: MTT cytotoxicity assay, PC3 (p53 neg)
# Type: cell-based
# Experimental Conditions: 48 h
Documented IC50 across a set of compounds

>  <Compound>
CN1C[C@H](c2ccccc2Cl)[C@]2(NC(=S)N(c3ccccc3)C2=O)[C@]12C(=O)Nc1ccc(Cl)cc12 (racemic) [Compound 11]

>  <Assay System>
PC3 cells

>  <IC50>
> 100 µM

$$$$
>  <Compound>
CN1C[C@H](c2ccccc2Br)[C@]2(NC(=S)N(c3ccccc3)C2=O)[C@]12C(=O)Nc1ccccc12 (racemic) [Compound 8]

>  <Assay System>
PC3 cells

>  <IC50>
> 100 µM

$$$$
>  <Compound>
COc1ccc([C@H]2CN(C)[C@@]3(C(=O)Nc4ccc(Br)cc43)[C@@]23NC(=S)N(c2ccc(F)c(Cl)c2)C3=O)cc1OC (racemic) [Compound 45]

>  <Assay System>
PC3 cells

>  <IC50>
> 100 µM

$$$$
>  <Compound>
C=CCN1C(=O)[C@]2(NC1=S)[C@@H](c1ccccn1)CN(C)[C@@]21C(=O)Nc2ccccc21 (racemic) [Compound 67]

>  <Assay System>
PC3 cells

>  <IC50>
> 50 µM

$$$$
>  <Compound>
CN1C[C@H](c2cccc(Cl)c2)[C@]2(NC(=S)N(c3ccccc3)C2=O)[C@]12C(=O)Nc1ccc(Cl)cc12 (racemic) [Compound 23]

>  <Assay System>
PC3 cells

>  <IC50>
> 100 µM

$$$$
>  <Compound>
CCOc1ccc([C@H]2CN(C)[C@@]3(C(=O)Nc4ccccc43)[C@@]23NC(=S)N(c2ccc(F)cc2)C3=O)cc1 (racemic) [Compound 60]

>  <Assay System>
PC3 cells

>  <IC50>
> 100 µM

$$$$

* * *

# System: HCT^−/− cells
# Test Description: MTT cytotoxicity assay, HCT^−/− (p53 neg)
# Assay type: cell-based
# Experimental Conditions: 48 h
# Description: The synthesized compounds were tested for their ability to block the proliferation of the selected model cell lines: LNCaP (p53+), PC3 (p53-), HCT^wt (p53+), and HCT^−/− (p53-) cells. […] First, 4000 cells per well were plated out in 140 µL of DMEM (with 10% FBS) in 96-well plates and incubated in 5% CO2 for 24 h at 37 °C without treatment. […] Cell survival rates were determined by the comparison of optical density with the corresponding untreated control cell culture. […]
pIC50: −log10 of the molar value.
pIC50 overview
Measured Property: pIC50

>  <Molecule>
CN1C[C@H](c2cccc(Cl)c2)[C@]2(NC(=S)N(c3ccccc3)C2=O)[C@]12C(=O)Nc1ccc(Cl)cc12 (racemic) [Compound 23]

>  <Recorded Value>
4.29

$$$$
>  <Molecule>
CN1CC(c2ccccc2)C2(NC(=S)N(c3ccccc3)C2=O)C12C(=O)Nc1ccccc12 (stereo not shown) [Compound 4]

>  <Recorded Value>
< 4.00

$$$$
>  <Molecule>
CN1C[C@H](c2ccc(Cl)cc2)[C@]2(NC(=S)N(c3ccc(F)cc3)C2=O)[C@]12C(=O)Nc1ccc(Br)cc12 (racemic) [Compound 40]

>  <Recorded Value>
< 4.00

$$$$
>  <Molecule>
CN1C[C@H](c2ccncc2)[C@]2(NC(=S)N(c3ccccc3)C2=O)[C@]12C(=O)Nc1ccccc12 (racemic) [Compound 19]

>  <Recorded Value>
< 4.00

$$$$
